As shown below, each of these compounds has a reported isoTOP-ABPP ratio, O00170_C122 value.
Biological target: AIP C122 (O00170) (Homo sapiens, UniProt O00170)
Sequence (O00170 whole entry): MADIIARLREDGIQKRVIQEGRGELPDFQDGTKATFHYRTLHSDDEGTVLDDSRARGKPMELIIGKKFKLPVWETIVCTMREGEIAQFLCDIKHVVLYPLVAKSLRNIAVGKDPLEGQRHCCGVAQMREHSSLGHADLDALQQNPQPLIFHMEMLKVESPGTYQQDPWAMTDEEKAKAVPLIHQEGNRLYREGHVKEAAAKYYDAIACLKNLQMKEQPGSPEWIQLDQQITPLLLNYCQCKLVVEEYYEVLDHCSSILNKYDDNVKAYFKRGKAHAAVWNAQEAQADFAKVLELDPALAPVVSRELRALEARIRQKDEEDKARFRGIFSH
Experiment: Competitive isoTOP-ABPP, cell lysates
Type: binding
Conditions: 500 μM, invitro, ramos
experimentalEndpoint: isoTOP-ABPP ratio, O00170_C122

{"columns": ["compound", "experimentalEndpoint", "quantitativeReadout"],
 "data": [
  ["O=C(CCl)NC(=O)NC12CC3CC(CC(C3)C1)C2", "isoTOP-ABPP ratio, O00170_C122", 1.3],
  ["O=C(CCl)N1CCN(S(=O)(=O)c2ccccc2F)CC1", "isoTOP-ABPP ratio, O00170_C122", 1.7],
  ["O=C(CCl)NCCc1c[nH]c2ccccc12", "isoTOP-ABPP ratio, O00170_C122", 0.9],
  ["Cn1cc(S(=O)(=O)N2CCOCC2)cc1C(=O)NC(=O)CCl", "isoTOP-ABPP ratio, O00170_C122", 2.8]
]}

* * *

Biological target: MGMT C150 (P16455) (Homo sapiens, UniProt P16455)
Sequence (P16455 1-207): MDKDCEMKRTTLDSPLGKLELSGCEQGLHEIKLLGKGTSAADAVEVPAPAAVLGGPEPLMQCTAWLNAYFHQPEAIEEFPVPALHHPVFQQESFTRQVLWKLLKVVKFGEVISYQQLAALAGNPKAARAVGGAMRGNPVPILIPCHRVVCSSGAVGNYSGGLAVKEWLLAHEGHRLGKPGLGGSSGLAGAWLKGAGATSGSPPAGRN
Test: Competitive isoTOP-ABPP, cell lysates
Type: binding
Conditions: 500 μm, in-vitro_ramos
Would you mind labelling by isoTOP-ABPP reactivity ratio, P16455_C150? At or over 3 is 1, under is 0.

{"columns": ["molecule", "qualitativeLabel"],
 "data": [
  ["O=C(CCl)N(Cc1ccc(F)cc1)C12CC3CC(CC(C3)C1)C2 [compound 34]", 0],
  ["C=CC(=O)N1CCC(c2noc3ccc(F)cc23)CC1 [compound 37]", 0],
  ["C=CC(=O)Nc1cc(C)c(Br)cc1C [compound 40]", 0],
  ["CC(C)(C)c1cc(NC(=O)CCl)on1 [compound 32]", 1],
  ["C=CC(=O)N(Cc1cccnc1)c1cc(C(F)(F)F)cc(C(F)(F)F)c1 [compound 31]", 0],
  ["Cc1ccc(C=C(C#N)C(=O)NCCN2CCOCC2)cc1 [compound 41]", 0],
  ["O=C(CCl)Nc1ccccc1C1CCCCCC1 [compound 35]", 0],
  ["C=CC(=O)Nc1cc(F)c(N2CCN(C(=O)OC(C)(C)C)CC2)c(F)c1 [compound 38]", 0],
  ["CCN(CC)c1ccc(S(N)(=O)=O)cc1NC(=O)CCl [compound 30]", 1]
]}

* * *

As shown below, each of these molecules has a reported isoTOP-ABPP ratio O75362_C286 value.
Biological target: cysteines in MDA-MB-231 and Ramos cells (Homo sapiens, UniProt O75362)
Sequence (O75362 whole entry, the tested form may be a part): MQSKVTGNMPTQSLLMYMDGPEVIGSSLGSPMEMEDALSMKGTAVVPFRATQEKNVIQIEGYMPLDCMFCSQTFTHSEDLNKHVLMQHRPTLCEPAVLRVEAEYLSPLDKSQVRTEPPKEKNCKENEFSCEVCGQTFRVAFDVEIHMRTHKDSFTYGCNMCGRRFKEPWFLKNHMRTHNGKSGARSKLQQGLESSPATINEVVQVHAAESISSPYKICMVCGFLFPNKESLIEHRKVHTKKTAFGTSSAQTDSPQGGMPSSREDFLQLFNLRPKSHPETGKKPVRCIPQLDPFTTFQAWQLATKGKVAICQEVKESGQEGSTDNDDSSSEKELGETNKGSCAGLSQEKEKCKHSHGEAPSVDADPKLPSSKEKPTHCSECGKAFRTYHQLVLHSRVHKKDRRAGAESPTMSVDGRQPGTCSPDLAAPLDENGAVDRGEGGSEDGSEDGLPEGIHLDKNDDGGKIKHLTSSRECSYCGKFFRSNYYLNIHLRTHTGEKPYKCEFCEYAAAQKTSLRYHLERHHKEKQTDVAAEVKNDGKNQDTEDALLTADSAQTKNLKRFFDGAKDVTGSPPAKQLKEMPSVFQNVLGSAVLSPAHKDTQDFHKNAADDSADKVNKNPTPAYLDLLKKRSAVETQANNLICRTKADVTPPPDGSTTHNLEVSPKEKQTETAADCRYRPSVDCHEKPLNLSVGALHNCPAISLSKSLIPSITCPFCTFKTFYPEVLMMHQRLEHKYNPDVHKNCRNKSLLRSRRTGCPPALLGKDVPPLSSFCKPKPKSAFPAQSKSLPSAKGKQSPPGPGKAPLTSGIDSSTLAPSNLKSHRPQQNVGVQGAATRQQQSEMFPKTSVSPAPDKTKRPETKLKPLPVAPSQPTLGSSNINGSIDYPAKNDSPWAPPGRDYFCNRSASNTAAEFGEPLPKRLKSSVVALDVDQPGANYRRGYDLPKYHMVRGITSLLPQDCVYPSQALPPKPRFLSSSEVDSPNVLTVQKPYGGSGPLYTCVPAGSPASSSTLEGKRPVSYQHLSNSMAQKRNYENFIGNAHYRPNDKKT
Experiment: Competitive isoTOP-ABPP in situ (fragment-treated cells)
Type: cell-based
Conditions: 200 μM, insitu, 231

{"columns": ["molecule", "isoTOP-ABPP ratio O75362_C286"],
 "data": [
  ["CC1CCc2ccccc2N1C(=O)CCl (centres unmarked)", 20.0],
  ["O=C(CCl)NC(=O)NC12CC3CC(CC(C3)C1)C2", 20.0],
  ["O=C(CCl)NC12CC3CC(CC(C3)C1)C2", 1.1],
  ["CC(C)CCOCCNC(=O)CCl", 1.0],
  ["Cc1ccc(C=C(C#N)C(=O)NCCN2CCOCC2)cc1", 1.0],
  ["O=C(CCl)N1CCN(S(=O)(=O)c2ccccc2F)CC1", 2.6],
  ["O=C(CCl)NCCc1c[nH]c2ccccc12", 1.1],
  ["COc1ccccc1OCCNC(=O)CCl", 0.9]
]}

* * *

Molecular target: ACAT1 C119 (P24752) (Homo sapiens, UniProt P24752)
Sequence (P24752 34-427): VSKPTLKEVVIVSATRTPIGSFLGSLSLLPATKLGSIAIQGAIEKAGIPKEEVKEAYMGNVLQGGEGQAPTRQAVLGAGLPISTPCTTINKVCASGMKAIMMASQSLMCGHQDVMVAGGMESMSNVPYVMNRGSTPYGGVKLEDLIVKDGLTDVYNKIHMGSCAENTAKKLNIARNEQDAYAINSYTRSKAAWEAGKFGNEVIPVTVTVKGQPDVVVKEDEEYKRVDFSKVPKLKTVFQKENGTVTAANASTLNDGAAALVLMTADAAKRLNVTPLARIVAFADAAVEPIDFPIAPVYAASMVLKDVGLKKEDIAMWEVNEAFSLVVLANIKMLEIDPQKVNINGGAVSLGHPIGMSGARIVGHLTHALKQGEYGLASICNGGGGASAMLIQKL
Assay: Competitive isoTOP-ABPP, cell lysates
Type: binding
Settings: 500 μm, in-vitro_ramos_231
experimentalEndpoint: isoTOP-ABPP reactivity profile ratio, P24752_C119

{"columns": ["compound", "quantitativeReadout"],
 "data": [
  ["COc1cc(NC(=O)CCl)cc(OC)c1 [compound 43]", 1.8],
  ["O=C(CCl)Nc1ccc(-c2ccccc2)cc1 [compound 52]", 1.4],
  ["CC1CCc2ccccc2N1C(=O)CCl (centres unmarked) [compound 45]", 12.4],
  ["O=C(CCl)N1CCc2cc(Br)ccc21 [compound 50]", 2.1],
  ["C=CC(=O)N1CCC(Cc2ccccc2)CC1 [compound 53]", 0.9],
  ["C=CC(=O)N(c1ccccc1)C1CCCCC1 [compound 46]", 0.8],
  ["CCCN(C(=O)CCl)c1c(N)n(CCC)c(=O)[nH]c1=O [compound 55]", 0.9],
  ["O=C(CCl)Nc1cccc2ncccc12 [compound 51]", 0.8],
  ["Cc1ncc(CO)c(CNC(=O)CCl)c1O [compound 54]", 1.0],
  ["Cc1ccc(C(F)(F)F)cc1NC(=O)CCl [compound 49]", 4.9],
  ["O=C(CCl)NC1C(O)OC(CO)C(O)C1O (mixture of isomers) [compound 44]", 0.8]
]}

* * *

As shown below, each of these compounds has a reported isoTOP-ABPP ratio O95571_C170 value.
Target: cysteines in MDA-MB-231 and Ramos cells (Homo sapiens)
Assay: Competitive isoTOP-ABPP in situ (fragment-treated cells)
Format: cell-based
Conditions: 200 μM, insitu, 231

{"columns": ["compound", "isoTOP-ABPP ratio O95571_C170"],
 "data": [
  ["CC(C)CCOCCNC(=O)CCl [compound 27]", 1.1],
  ["O=C(CCl)NC(=O)NC12CC3CC(CC(C3)C1)C2 [compound 12]", 6.3],
  ["O=C(CCl)NC12CC3CC(CC(C3)C1)C2 [compound 21]", 1.7],
  ["CC1CCc2ccccc2N1C(=O)CCl (stereo not shown) [compound 45]", 3.1],
  ["O=C(CCl)N1CCN(S(=O)(=O)c2ccccc2F)CC1 [compound 10]", 9.0],
  ["O=C(CCl)NCCc1c[nH]c2ccccc12 [compound 13]", 1.2],
  ["Cc1ccc(C=C(C#N)C(=O)NCCN2CCOCC2)cc1 [compound 41]", 1.1]
]}

* * *

Target: cysteines in MDA-MB-231 and Ramos cells (Homo sapiens)
Sequence (Q9NQ88 1-270): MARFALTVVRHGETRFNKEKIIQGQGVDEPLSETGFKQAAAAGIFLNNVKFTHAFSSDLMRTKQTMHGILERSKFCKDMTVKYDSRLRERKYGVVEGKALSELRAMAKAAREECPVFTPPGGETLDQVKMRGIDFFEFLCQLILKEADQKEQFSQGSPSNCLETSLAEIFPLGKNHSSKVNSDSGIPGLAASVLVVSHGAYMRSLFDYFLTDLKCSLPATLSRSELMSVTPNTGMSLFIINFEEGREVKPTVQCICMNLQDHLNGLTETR
Assay: Competitive isoTOP-ABPP in situ (fragment-treated cells)
Format: cell-based
Conditions: 200 μM, insitu, 231

{"columns": ["compound", "isoTOP-ABPP ratio Q9NQ88_C161"],
 "data": [
  ["CC1CCc2ccccc2N1C(=O)CCl (stereo not drawn) [compound 45]", 20.0],
  ["O=C(CCl)NC12CC3CC(CC(C3)C1)C2 [compound 21]", 1.0],
  ["O=C(CCl)NCCc1c[nH]c2ccccc12 [compound 13]", 1.1],
  ["C=CC(=O)N(Cc1cccnc1)c1cc(C(F)(F)F)cc(C(F)(F)F)c1 [compound 31]", 1.0],
  ["CC(C)CCOCCNC(=O)CCl [compound 27]", 0.6],
  ["O=C(CCl)N1CCN(S(=O)(=O)c2ccccc2F)CC1 [compound 10]", 4.6]
]}

* * *

Molecular target: GSTP1 C48 (P09211) (Homo sapiens, UniProt P09211)
Sequence (P09211 whole entry): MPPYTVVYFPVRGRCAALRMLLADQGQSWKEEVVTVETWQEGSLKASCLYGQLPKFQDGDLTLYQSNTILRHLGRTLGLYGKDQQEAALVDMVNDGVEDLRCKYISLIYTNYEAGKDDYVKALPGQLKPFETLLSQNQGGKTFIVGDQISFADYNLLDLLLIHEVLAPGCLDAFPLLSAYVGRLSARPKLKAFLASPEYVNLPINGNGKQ
Experiment: Competitive isoTOP-ABPP, cell lysates
Type: binding
Details: 500 μm, in-vitro_ramos

{"columns": ["compound", "isoTOP-ABPP reactivity ratio, P09211_C48"],
 "data": [
  ["Cc1ccc(C=C(C#N)C(=O)NCCN2CCOCC2)cc1", 0.9],
  ["C=CC(=O)N(Cc1cccnc1)c1cc(C(F)(F)F)cc(C(F)(F)F)c1", 1.3],
  ["C=CC(=O)N1CCC(c2noc3ccc(F)cc23)CC1", 1.2],
  ["CCN(CC)c1ccc(S(N)(=O)=O)cc1NC(=O)CCl", 1.2],
  ["CC(C)(C)c1cc(NC(=O)CCl)on1", 1.4],
  ["C=CC(=O)Nc1cc(C)c(Br)cc1C", 1.6],
  ["O=C(CCl)N(Cc1ccc(F)cc1)C12CC3CC(CC(C3)C1)C2", 1.0],
  ["O=C(CCl)Nc1ccccc1C1CCCCCC1", 1.3]
]}

meta.source: patent US10670605B2
